- test_system: Galectin-3 (Homo sapiens)
- Sequence (P17931 whole entry): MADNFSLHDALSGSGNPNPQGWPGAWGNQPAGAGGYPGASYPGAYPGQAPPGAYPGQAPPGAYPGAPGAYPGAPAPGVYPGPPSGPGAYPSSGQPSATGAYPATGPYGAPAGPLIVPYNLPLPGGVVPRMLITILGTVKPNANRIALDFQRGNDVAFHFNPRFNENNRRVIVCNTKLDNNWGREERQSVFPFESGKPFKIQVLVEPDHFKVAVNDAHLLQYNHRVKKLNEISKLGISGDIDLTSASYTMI
- experiment_notes: Fluorescence Anisotropy Assay: The affinity of Example 1-71 for galectins were determined by a fluorescence anisotropy assay where the compound was used as an inhibitor of the interaction between galectin and a fluorescein tagged saccharide probe
readout_kind: Kd (nM)
Answers are plain numbers, in nM.

> print(dat)
                                   compound  quantitative.readout
1  CCOC1[C@@H](Sc2cc(Br)cnc2C(=O)N2CCC2)OC(CO)[C@H](O)[C@@H]1n1cc(-c2ccc(Cl)c(F)c2)nn1 (some centres undefined)                     8
2  COC1[C@@H](Sc2cc(Br)cnc2C(=O)N2CCC2)OC(CO)[C@H](O)[C@@H]1n1cc(-c2cc(F)c(F)c(F)c2)nn1 (some centres undefined)                     6
3  COC1[C@@H](Sc2cc(Br)cnc2C(=O)N2CCC2)OC(CO)[C@H](O)[C@@H]1n1cc(-c2ccc(Cl)c(F)c2)nn1 (some centres undefined)                     7

Now look at this entry.
// field: Kd; key: CCOC1[C@@H](Sc2cc(Cl)cnc2C(=O)N2CCC2)OC(CO)[C@H](O)[C@@H]1n1cc(-c2ccc(Cl)c(F)c2)nn1 (some centres undefined) ; value = 17
